Origin of values: the supplement of paper PMC10567573

B1: KIAA0774 (parent)
chain: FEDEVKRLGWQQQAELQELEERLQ

- Variants of: B1
- assay_overview: protein stability index of a GFP-peptide fusion (GPS, HEK-293T) (PSI 1-6); higher = more stable;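 note: lentivirally expressed fusions sorted by FACS into six bins by GFP to DsRed ratio, PSI derived from sequencing read proportions per bin multiplied by bin number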
- applied_conditions: c terminus: a fixed tail appended
Consider the following variants; for each one, report its protein stability index.
Give bare numbers.

Below: 3 variants and their reported protein stability index.
E20N ... 4.32
K6G ... 4.5
Q12W ... 2.9

Look up protein stability index for the entries below, preserving their order.
1. Q17M
2. F1S
3. Q11S
4. F1V

1: 4.57; 2: 2.67; 3: 4.4; 4: 3.66
